Test system: DU-145
Experiment: Antiproliferative activity against human DU-145 cells assessed as reduction in cell viability
Type: functional, cell-based
Conditions: Homo sapiens, DU-145
measuredProperty: pIC50
Interpret pIC50 as the negative base-10 log of the concentration measured in mol/L.

CC(O)(C[S+]([O-])c1ccccc1OC(F)(F)F)C(=O)Nc1ccc([N+](=O)[O-])cc1C(F)(F)F (stereo not given) = 4.51

Could you share which pIC50 value was measured for CC(O)(C[S+]([O-])c1ccc(C(F)(F)F)cn1)C(=O)Nc1ccc(C#N)c(C(F)(F)F)c1 (stereo in doubt; form 1) ?
4.00

Request: CC(O)(C[S+]([O-])c1ccc(OC(F)(F)F)cc1)C(=O)Nc1ccc(C#N)c(C(F)(F)F)c1 (stereo not given)
4.28

And for CC(O)(C[S+]([O-])c1ccc(C(F)(F)F)cc1)C(=O)Nc1ccc([N+](=O)[O-])cc1C(F)(F)F (stereo not given) ?
4.44
